test system: HT-29; test: Cytotoxicity against human HT-29 cells after 96 hrs by SRB assay; assay type: functional, cell-based; conditions: HT-29, 96 h
compounds and their reported IC50

SMILES_ENTRY	IC50, µM
CCOC(=O)CC(=O)C[C@H]1O[C@@H]2[C@@H]3[C@H]4CC[C@@H]5[C@@]6(C)CC[C@H](OC(C)=O)C(C)(C)[C@@H]6CC[C@@]5(C)[C@]4(C)CC[C@@]31CCC2(C)C	13.2
C=C(C)[C@@H]1CC[C@]2([C@H](O)CC(=O)CC(=O)OCC)CC[C@]3(C)[C@H](CC[C@@H]4[C@@]5(C)CC[C@H](OC(C)=O)C(C)(C)[C@@H]5CC[C@]43C)[C@@H]12	18.5
C=C(C)[C@@H]1CC[C@]2([C@H](O)CC(=O)CC(=O)OCC)CC[C@]3(C)[C@H](CC[C@@H]4[C@@]5(C)CC[C@H](OC)C(C)(C)[C@@H]5CC[C@]43C)[C@@H]12	16.8
C=C(C)[C@@H]1CC[C@]2([C@H](O)CC(=O)OCC)CC[C@]3(C)[C@H](CC[C@@H]4[C@@]5(C)CC[C@H](OC(C)=O)C(C)(C)[C@@H]5CC[C@]43C)[C@@H]12	21.8
C=C(C)[C@@H]1CC[C@]2(C(=O)CC(=O)OCC)CC[C@]3(C)[C@H](CC[C@@H]4[C@@]5(C)CC[C@H](OC(C)=O)C(C)(C)[C@@H]5CC[C@]43C)[C@@H]12	12
C=C(C)[C@@H]1CC[C@]2([C@@H]3O[C@H]3C(=O)N(CC)CC)CC[C@]3(C)[C@H](CC[C@@H]4[C@@]5(C)CC[C@H](OC(C)=O)C(C)(C)[C@@H]5CC[C@]43C)[C@@H]12	9.6
C=C(C)[C@@H]1CC[C@]2([C@@H]3CO3)CC[C@]3(C)[C@H](CC[C@@H]4[C@@]5(C)CC[C@H](O)C(C)(C)[C@@H]5CC[C@]43C)[C@@H]12	15.4
